- Tested on: LG0567-F671-PDC KRAS tumor spheroid viability;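 further: drug exposure lasted seven days after spheroids formed for three days; 100% = DMSO vehicle control viability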
- test_name: Anticancer human tumor LG0567-F671-PDC patient-derived lung adenocarcinoma cell line growth inhibition [KRAS2]
- conditions: second compound 1 µM; first compound 0.1 µM; hits give low values; spheroids with HUVEC and MSC
- Source text: Multicellular complex tumor spheroid response to RAS pathway inhibitors in combination with a targeted agents in patient-derived cell lines with oncogenic KRAS variants from multiple cancer types A high-throughput screen of multi-cell type tumor spheroids was designed to identify active combinations of targeted small molecules and KRAS pathway inhibitors. […] Compounds. […] If the clinical Cmax for an agent had not been determined, the highest concentration tested was 10 microM. […]
assay_endpoint: viability, T/C (%)
One number for each entry, in %.

Known viability, T/C results, listed for orientation:
CC(=O)OC12COC1CC(O)C1(C)C(=O)C(O)C3=C(C)C(OC(=O)C(O)C(NC(=O)OC(C)(C)C)c4ccccc4)CC(O)(C(OC(=O)c4ccccc4)C21)C3(C)C (centres undefined) + CNCc1ccccc1-c1csc(C(C)Nc2nc(C)nc3cc(OC)c(OC)cc23)c1: 42.2
CC(=O)OC12COC1CC(O)C1(C)C(=O)C(O)C3=C(C)C(OC(=O)C(O)C(NC(=O)OC(C)(C)C)c4ccccc4)CC(O)(C(OC(=O)c4ccccc4)C21)C3(C)C (centres undefined) + COc1cc2nc(C)nc(NC(C)c3cc(N)cc(C(F)(F)F)c3)c2cc1OC1CCOC1: 69.7
Cn1ncnc1[C@H]1c2n[nH]c(=O)c3cc(F)cc(c23)N[C@@H]1c1ccc(F)cc1 + C=CC(=O)N1CCN(c2nc(OCC3CCCN3C)nc3c2CCN(c2cccc4cccc(C)c24)C3)CC1CC#N: 24.9

Exercise: Report viability, T/C for CC1(C)CCC(CN2CCN(c3ccc(C(=O)NS(=O)(=O)c4ccc(NCC5CCOCC5)c([N+](=O)[O-])c4)c(Oc4cnc5[nH]ccc5c4)c3)CC2)=C(c2ccc(Cl)cc2)C1 + CNCc1ccccc1-c1csc(C(C)Nc2nc(C)nc3cc(OC)c(OC)cc23)c1 tested on LG0567-F671-PDC KRAS tumor spheroid viability.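 Further: drug exposure lasted seven days after spheroids formed for three days; 100% = DMSO vehicle control viability.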
Solution: 77.7
